Tested on: luciferase (Luc) mRNA
Experiment: Luc expression, whole body bioluminescence after intravenous administration to mice
Assay type: in vivo
Conditions: Table 3E; intravenous
assay metric: 6 h BLI Lipid/MC3
Just the number, please, no unit after it.

## Task Give me measured 6 h BLI Lipid/MC3, please, for this molecule: CCCCCCCCC(CCCCCCCC)OC(=O)CCCCCCCN(CCO)CCCCCCCC(=O)OCC(C)CCCCCCC (stereo not shown)
## Result 7.46

## Task Identify measured 6 h BLI Lipid/MC3 associated with CCCCCCCCCOC(=O)CCCCCCCN(CCO)CCCCCCCC(=O)OC(CCC1CC1CCCC)CCC1CC1CCCC (stereo not shown)
## Result 0.29

## Task Provide measured 6 h BLI Lipid/MC3 value, entry: `CCCCCCCOC(=O)CCCCCCCCCN(CCO)CCCCCCCCCC(=O)OC(CCCCCC)CCCCCC`
## Result 1.13

## Task For the molecule CCCCCCCCCC(=O)OC(C)CCCCCCN(CCO)CCCCCCCC(=O)OC(CCCCCCCC)CCCCCCCC (stereo not shown) , report 6 h BLI Lipid/MC3.
## Result 3.16

## Task Look up and report measured 6 h BLI Lipid/MC3 for this entry: CCCCCCCCCC(=O)OC(C)CCCCCCN(CCO)CCCCCCCOC(=O)C(CCCCCCCC)CCCCCCCC (stereo not shown)
## Result 2.12

## Task Let me know recorded 6 h BLI Lipid/MC3 for CCCCCCCCC(CCCCCCCC)OC(=O)CCCCCCCN(CCO)C(C)CCCCCCCCOC(=O)CCCCCCC (stereo not shown) , thanks.
## Result 0.12

## Task Hello, please tell me recorded 6 h BLI Lipid/MC3 for this one: `CCCCCCCCCOC(=O)CCCCCCCN(CCO)CCCCCCCC(=O)OC(COCCCCCC)COCCCCCC`
## Result 0.031
